Values compiled from patent US10195156B2.

test: Encapsulation efficiency of RNA (QUANT-IT RIBOGREEN RNA assay); type: physicochemical; details: Table 1b
Value Type: EE (%)

// below: answered compounds
Compound	Value Type	Observed
CCCCCCCCCN(CCCCCCCCC)CCCC1CCN(C(=O)CCN(CCCCCCCCC)CCN(CCCCCCCCC)CCCCCCCCC)CC1	EE (%)	99.18%
CCCCCCCCCN(CCCCCCCCC)CCN(CCCCCCCCC)CC(=O)N1CCN(C(=O)CN(CCCCCCCCC)CCCCCC(=O)OCCC)CC1	EE (%)	96.9%

Would you kindly look at the next entry?
query: Check the records and state EE (%) for CCCCCCCCCN(CCCOC(=O)CCCCC)CCC(=O)N1CCN(C(=O)CCN(CCCCCCCCC)CCN(CCCCCCCCC)CCCCCCCCC)CC1
result: 97.42%
